Biological target: T1, IL-2 receptor βγ complex on human T cells (human, UniProt P14784 27-551; P31785 23-369)
T1 sequence (looked up) 1: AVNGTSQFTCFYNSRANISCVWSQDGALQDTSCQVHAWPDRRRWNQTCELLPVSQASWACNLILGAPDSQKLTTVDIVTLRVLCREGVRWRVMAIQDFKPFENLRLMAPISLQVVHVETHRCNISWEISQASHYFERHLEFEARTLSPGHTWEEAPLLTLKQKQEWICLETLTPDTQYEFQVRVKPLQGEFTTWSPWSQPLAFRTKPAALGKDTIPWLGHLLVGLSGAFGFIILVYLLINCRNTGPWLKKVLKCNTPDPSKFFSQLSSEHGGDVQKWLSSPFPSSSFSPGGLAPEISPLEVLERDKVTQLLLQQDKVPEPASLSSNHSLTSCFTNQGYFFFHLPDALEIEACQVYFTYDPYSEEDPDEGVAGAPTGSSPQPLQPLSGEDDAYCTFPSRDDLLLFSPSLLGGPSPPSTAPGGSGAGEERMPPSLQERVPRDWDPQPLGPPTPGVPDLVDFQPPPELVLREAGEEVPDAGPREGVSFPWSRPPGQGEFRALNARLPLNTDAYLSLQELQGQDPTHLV
T1 sequence (looked up) 2: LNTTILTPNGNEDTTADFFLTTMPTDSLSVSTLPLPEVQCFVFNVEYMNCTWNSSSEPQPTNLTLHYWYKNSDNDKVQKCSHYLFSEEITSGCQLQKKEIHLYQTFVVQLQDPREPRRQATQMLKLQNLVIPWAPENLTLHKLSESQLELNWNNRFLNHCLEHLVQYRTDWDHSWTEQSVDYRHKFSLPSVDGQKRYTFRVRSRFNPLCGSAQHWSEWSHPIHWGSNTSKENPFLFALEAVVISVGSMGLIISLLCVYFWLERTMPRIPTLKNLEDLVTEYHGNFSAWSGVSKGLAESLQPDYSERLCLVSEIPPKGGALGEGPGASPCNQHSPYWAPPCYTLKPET
Test: cell-based or functional assay
Primed or numbered codes have the meaning given here. [ ]: non-standard residue; d: D form. Ygp(3) = O-(PEG8-amino)-tyrosine; Yn3(3) = O-(PEG9-azido)-tyrosine; hSer = N[C@@H](CCO)C(=O)O; Nle = CCCC[C@H](N)C(=O)O
PROPERTY MEASURED: Average EC50, pSTAT5 Assay (T cells), intact molecule (nM)
Answer in nM, number only, no unit symbol.

1. CMP-150 (ligand, also: further groups not given here) APTSSSTKKTQLQLEHLLLDLK[Nle]ILNGINNYKNPKLTR[Nle]L[hSer][Yn3(3)]KF[Ygp(3)][Nle]PKKATELKHLQCLEEELKPLEEVL[hSer]LAQSKNFHLRPRDLISNINVIVLELKGSETTF[hSer]CEYADETATIVEFLNRWITFSQSIISTLT :: 6.38
2. CMP-148 (ligand, also: further groups not given here) APTSSSTKKTQLQLKHLLLDLQ[Nle]ILNGINNYKNPKLTR[Nle]L[hSer][Yn3(3)]KF[Ygp(3)][Nle]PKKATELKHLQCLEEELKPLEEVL[hSer]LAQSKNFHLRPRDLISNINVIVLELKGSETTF[hSer]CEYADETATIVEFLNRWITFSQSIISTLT :: 3.57

Moving on to another binder below.
Input line: Consider the binder CMP-147 (ligand, also: further groups not given here) APTSSSTKKTQLKLEHLLLDLQ[Nle]ILNGINNYKNPKLTR[Nle]L[hSer][Yn3(3)]KF[Ygp(3)][Nle]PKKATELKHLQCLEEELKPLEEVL[hSer]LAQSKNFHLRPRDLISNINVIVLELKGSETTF[hSer]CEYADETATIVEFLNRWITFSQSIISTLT and give its measured Average EC50, pSTAT5 Assay (T cells), intact molecule.
Output line: 3.86
